assay: Maximum absorption wavelength, maximum fluorescence wavelength and fluorescence quantum yield (Example 6); format: physicochemical; conditions: same manner as Example 3
Each item that follows carries a reported λabs^max (maximum absorption wavelength).

mol smiles	λabs^max (maximum absorption wavelength) (nm)
Cn1c(-c2ccc(C#N)cc2)cn2ccc[n+]12	381
Cn1c(-c2ccc([N+](=O)[O-])cc2)cn2ccc[n+]12	412
COC(=O)c1ccc(-c2cn3ccc[n+]3n2C)cc1	376
COc1ccc(-c2cn3ccc[n+]3n2C)cc1	330

###

assay: Fluorescence spectrum measurement of triazapentalenes (Example 3); assay type: physicochemical; conditions: dichloromethane; standard 9,10-bis(phenyl ethynyl)anthracene (0.96)

molecule	readout unit	φr (relative fluorescence quantum yield)
COc1ccc(-c2cn3ccc[n+]3n2C)cc1 [Compound 1n]	%	6.2
Cn1c(-c2ccc([N+](=O)[O-])cc2)cn2ccc[n+]12 [Compound 1m]	%	16
COC(=O)c1ccc(-c2cn3ccc[n+]3n2C)cc1 [Compound 1k]	%	51
Cn1c(-c2ccc(C#N)cc2)cn2ccc[n+]12 [Compound 1h]	%	18
Cn1c(-c2ccccc2)cn2ccc[n+]12 [Compound 1f]	%	3.0

###

Each item that follows carries a reported λem (emission wavelength).
test: Fluorescence spectrum measurement of triazapentalenes (Example 3); format: physicochemical; details: dichloromethane solution; excitation at absorption maximum

mol smiles	readout unit	λem (emission wavelength)
Cn1c(-c2cccc(C#N)c2)cn2ccc[n+]12	nm	481
Cn1c(-c2ccc(C#N)cc2)cn2ccc[n+]12	nm	509
COc1ccc(-c2cn3ccc[n+]3n2C)cc1	nm	413
Cn1c(-c2ccccc2)cn2ccc[n+]12	nm	419
COC(=O)c1ccc(-c2cn3ccc[n+]3n2C)cc1	nm	510
Cn1c(-c2ccc([N+](=O)[O-])cc2)cn2ccc[n+]12	nm	556

###

experiment: Fluorescence spectrum measurement of triazapentalenes (Example 3); format: physicochemical; details: dichloromethane solution

mol smiles	ε (molar extinction coefficient)
COc1ccc(-c2cn3ccc[n+]3n2C)cc1	5.70 10^3 cm − M^−1
COC(=O)c1ccc(-c2cn3ccc[n+]3n2C)cc1	3.02 10^3 cm − M^−1
Cn1c(-c2ccc(C#N)cc2)cn2ccc[n+]12	2.85 10^3 cm − M^−1
Cn1c(-c2ccccc2)cn2ccc[n+]12	3.82 10^3 cm − M^−1

###

assay: Maximum absorption wavelength, maximum fluorescence wavelength and fluorescence quantum yield (Example 6); type: physicochemical; details: same manner as Example 3
Each item that follows carries a reported λem^max (maximum fluorescence wavelength).
property name: λem^max (maximum fluorescence wavelength)

mol smiles	val
Cn1c(-c2ccc(C#N)cc2)cn2ccc[n+]12	509 nm
Cn1c(-c2ccc([N+](=O)[O-])cc2)cn2ccc[n+]12	556 nm
COc1ccc(-c2cn3ccc[n+]3n2C)cc1	413 nm
COC(=O)c1ccc(-c2cn3ccc[n+]3n2C)cc1	510 nm

###

assay: Maximum absorption wavelength, maximum fluorescence wavelength and fluorescence quantum yield (Example 6); type: physicochemical; details: same manner as Example 3
property name: φF (fluorescence quantum yield)

mol smiles	val
COC(=O)c1ccc(-c2cn3ccc[n+]3n2C)cc1	0.51
Cn1c(-c2ccc(C#N)cc2)cn2ccc[n+]12	0.18
COc1ccc(-c2cn3ccc[n+]3n2C)cc1	0.062
Cn1c(-c2ccc([N+](=O)[O-])cc2)cn2ccc[n+]12	0.16

The measured values listed here are drawn from patent US9222016B2.
